Hey, just so you know, these numbers are from BindingDB's records for doi:10.1021/jm070849r.

Target: 3-hydroxy-3-methylglutaryl-coenzyme A reductase (Rattus norvegicus, UniProt P51639)
Test: HMG-CoA Reductase Enzyme Assay and Inhibition of Cellular Cholesterol Synthesis Assay
Details: pH 7.2; 37 °C
Answer each item with its documented pIC50.
Please keep in mind that pIC50 is minus log10 of the molar concentration; only the number is needed.

### Prompt What does the record list as pIC50 for CC(C)c1c(C(=O)NCc2ccc(C(=O)N(C)C)cc2)nn(-c2ccc(F)cc2)c1CC[C@@H](O)C[C@@H](O)CC(=O)O ?
### Response 7.64

### Prompt Can you handle CC(C)c1c(C(=O)N2CCCCC2c2ccccc2)nn(-c2ccc(F)cc2)c1CC[C@@H](O)C[C@@H](O)CC(=O)O (some centres undefined) next?
### Response 8.96

### Prompt Can you handle CC(C)c1c(C(=O)N(C)Cc2ccccc2F)nn(-c2ccc(F)cc2)c1CC[C@@H](O)C[C@@H](O)CC(=O)O next?
### Response 9.30

### Prompt Can you handle Cc1ccc(CN(C)C(=O)c2nn(-c3ccc(F)cc3)c(CC[C@@H](O)C[C@@H](O)CC(=O)O)c2C(C)C)cc1 next?
### Response 8.74

### Prompt Can you handle CC(C)c1nc(N(C)S(C)(=O)=O)nc(-c2ccc(F)cc2)c1/C=C/[C@@H](O)C[C@@H](O)CC(=O)O next?
### Response 9.52

### Prompt Can you handle CC(C)c1c(C(=O)N2CCC[C@H](c3ccccc3)C2)nn(-c2ccc(F)cc2)c1CC[C@@H](O)C[C@@H](O)CC(=O)O next?
### Response 9.52

### Prompt Can you handle Cc1ccc(CNC(=O)c2nn(-c3ccc(F)cc3)c(CC[C@@H](O)C[C@@H](O)CC(=O)O)c2C(C)C)cc1 next?
### Response 9.05

### Prompt Can you handle CC(C)c1c(C(=O)NCc2ccccc2)nn(-c2ccc(F)cc2)c1CC[C@@H](O)C[C@@H](O)CC(=O)O next?
### Response 9.52

### Prompt Can you handle CC(C)c1c(C(=O)N(C)Cc2cccc(F)c2)nn(-c2ccc(F)cc2)c1CC[C@@H](O)C[C@@H](O)CC(=O)O next?
### Response 9.70

### Prompt Can you handle COc1ccc(CN(C)C(=O)c2nn(-c3ccc(F)cc3)c(CC[C@@H](O)C[C@@H](O)CC(=O)O)c2C(C)C)cc1 next?
### Response 9.52

### Prompt Can you handle CC(C)c1c(C(=O)N(C)Cc2ccc(F)cc2)nn(-c2ccc(F)cc2)c1CC[C@@H](O)C[C@@H](O)CC(=O)O next?
### Response 9.30

### Prompt Can you handle COc1ccc(CNC(=O)c2nn(-c3ccc(F)cc3)c(CC[C@@H](O)C[C@@H](O)CC(=O)O)c2C(C)C)cc1 next?
### Response 9.40

### Prompt Can you handle CC(C)c1c(C(=O)N(C)Cc2cccc(F)c2F)nn(-c2ccc(F)cc2)c1CC[C@@H](O)C[C@@H](O)CC(=O)O next?
### Response 9.22

### Prompt Can you handle Cc1cccc(CN(C)C(=O)c2nn(-c3ccc(F)cc3)c(CC[C@@H](O)C[C@@H](O)CC(=O)O)c2C(C)C)c1 next?
### Response 9.22

----------
Biological target: 3-hydroxy-3-methylglutaryl-coenzyme A reductase (Rattus norvegicus, UniProt P51639)
Assay: HMG-CoA Reductase Enzyme Assay and Inhibition of Cellular Cholesterol Synthesis Assay
Details: pH 7.2; 37 °C
measurementType: IC50 (nM)
Express it in nM; write the number only.

### Prompt What does the record list as IC50 for CC(C)c1c(C(=O)NCc2cccc(C#N)c2)nn(-c2ccc(F)cc2)c1CC[C@@H](O)C[C@@H](O)CC(=O)O ?
### Response 1.4

### Prompt Can you handle CC(C)c1c(C(=O)NCc2ccc(F)cc2)nn(-c2ccc(F)cc2)c1CC[C@@H](O)C[C@@H](O)CC(=O)O next?
### Response 0.7

### Prompt Can you handle CC(C)c1c(C(=O)N(Cc2ccccc2)C(C)C)nn(-c2ccc(F)cc2)c1CC[C@@H](O)C[C@@H](O)CC(=O)O next?
### Response 10

### Prompt Can you handle CC[C@H](C)C(=O)O[C@H]1C[C@H](O)C=C2C=C[C@H](C)[C@H](CC[C@@H](O)C[C@@H](O)CC(=O)O)[C@H]21 next?
### Response 17

----------
Target: 3-hydroxy-3-methylglutaryl-coenzyme A reductase (Rattus norvegicus, UniProt P51639)
Sequence (P51639 whole entry): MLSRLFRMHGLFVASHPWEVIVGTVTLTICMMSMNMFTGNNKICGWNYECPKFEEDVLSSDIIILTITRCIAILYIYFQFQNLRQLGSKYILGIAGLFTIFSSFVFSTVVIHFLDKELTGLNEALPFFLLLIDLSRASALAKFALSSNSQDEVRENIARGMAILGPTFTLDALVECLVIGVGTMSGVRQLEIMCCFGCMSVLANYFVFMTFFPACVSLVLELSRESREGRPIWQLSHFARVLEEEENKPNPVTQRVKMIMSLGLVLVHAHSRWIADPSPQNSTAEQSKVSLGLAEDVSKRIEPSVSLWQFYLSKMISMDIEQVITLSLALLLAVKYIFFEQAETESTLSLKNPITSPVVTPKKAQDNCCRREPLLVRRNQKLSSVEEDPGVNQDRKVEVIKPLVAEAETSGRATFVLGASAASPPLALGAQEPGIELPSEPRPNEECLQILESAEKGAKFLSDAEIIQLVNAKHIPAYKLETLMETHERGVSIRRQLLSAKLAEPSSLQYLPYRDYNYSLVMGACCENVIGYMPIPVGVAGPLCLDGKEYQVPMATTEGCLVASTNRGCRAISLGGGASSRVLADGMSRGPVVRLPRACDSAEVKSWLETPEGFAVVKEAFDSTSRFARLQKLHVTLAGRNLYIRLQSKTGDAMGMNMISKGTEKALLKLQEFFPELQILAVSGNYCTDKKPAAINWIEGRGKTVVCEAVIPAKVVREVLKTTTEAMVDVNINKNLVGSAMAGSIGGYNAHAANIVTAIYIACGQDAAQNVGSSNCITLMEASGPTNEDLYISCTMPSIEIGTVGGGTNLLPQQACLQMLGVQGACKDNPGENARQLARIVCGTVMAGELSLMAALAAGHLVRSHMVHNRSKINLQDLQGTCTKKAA
Assay: HMG-CoA Reductase Enzyme Assay and Inhibition of Cellular Cholesterol Synthesis Assay
Details: pH 7.2; 37 °C
measurementType: pIC50
Please keep in mind that pIC50 is minus log10 of the molar concentration; only the number is needed.

### Prompt What does the record list as pIC50 for CC(C)c1c(C(=O)N2CCCC2c2ccccc2)nn(-c2ccc(F)cc2)c1CC[C@@H](O)C[C@@H](O)CC(=O)O (some centres undefined) ?
### Response 8.40

### Prompt Can you handle CC(C)c1c(C(=O)N2CCCC(c3ccccc3)C2)nn(-c2ccc(F)cc2)c1CC[C@@H](O)C[C@@H](O)CC(=O)O (some centres undefined) next?
### Response 9.40

### Prompt Can you handle COCc1c(C(C)C)nc(C(C)C)c(/C=C/[C@@H](O)C[C@@H](O)CC(=O)O)c1-c1ccc(F)cc1 next?
### Response 8.77

### Prompt Can you handle CC(C)c1c(C(=O)N(C)Cc2ccccc2)nn(-c2ccc(F)cc2)c1CC[C@@H](O)C[C@@H](O)CC(=O)O next?
### Response 9.70

----------
Target: 3-hydroxy-3-methylglutaryl-coenzyme A reductase (Rattus norvegicus)
Sequence (P51639 whole entry): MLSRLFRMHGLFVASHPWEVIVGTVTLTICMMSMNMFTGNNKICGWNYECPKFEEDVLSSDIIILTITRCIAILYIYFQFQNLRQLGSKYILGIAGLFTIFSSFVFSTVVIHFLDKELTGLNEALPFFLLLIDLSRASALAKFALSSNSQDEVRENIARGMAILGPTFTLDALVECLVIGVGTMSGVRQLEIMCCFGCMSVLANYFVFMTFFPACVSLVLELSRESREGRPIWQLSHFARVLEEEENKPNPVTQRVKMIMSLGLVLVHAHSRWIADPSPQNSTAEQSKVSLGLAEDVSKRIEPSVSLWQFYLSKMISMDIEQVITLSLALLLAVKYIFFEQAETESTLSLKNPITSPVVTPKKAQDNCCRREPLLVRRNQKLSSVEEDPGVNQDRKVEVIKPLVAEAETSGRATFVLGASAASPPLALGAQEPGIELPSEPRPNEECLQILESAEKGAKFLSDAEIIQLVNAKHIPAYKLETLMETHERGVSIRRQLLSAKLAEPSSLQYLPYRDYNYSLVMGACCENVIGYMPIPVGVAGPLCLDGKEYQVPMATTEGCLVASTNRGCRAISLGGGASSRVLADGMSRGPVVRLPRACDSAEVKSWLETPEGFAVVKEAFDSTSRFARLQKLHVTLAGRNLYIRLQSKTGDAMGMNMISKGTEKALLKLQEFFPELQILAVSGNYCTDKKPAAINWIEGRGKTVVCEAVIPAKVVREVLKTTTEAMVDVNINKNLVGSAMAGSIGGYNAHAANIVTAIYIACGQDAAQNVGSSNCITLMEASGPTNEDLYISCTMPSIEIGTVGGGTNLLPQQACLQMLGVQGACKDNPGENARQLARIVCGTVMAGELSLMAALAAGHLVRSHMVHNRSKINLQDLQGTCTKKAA
Assay: HMG-CoA Reductase Enzyme Assay and Inhibition of Cellular Cholesterol Synthesis Assay
Details: pH 7.2; 37 °C; read-out: IC50
Experimental: Enzyme Assay for HMG-CoA reductase was based on the conversion of isotopically labeled HMG-CoA to mevalonic acid using rat liver microsomes as enzyme source. The product, [14C]-mevalonic acid was lactonized and separated from excess substrate via an anion ion exchange resin column, and radioactivity was counted on a scintillation counter. The IC50 values were calculated with GraphPad software (Prism). […]
measurementType: pIC50
Please keep in mind that pIC50 is minus log10 of the molar concentration; only the number is needed.

### Prompt What does the record list as pIC50 for Cc1ccccc1CN(C)C(=O)c1nn(-c2ccc(F)cc2)c(CC[C@@H](O)C[C@@H](O)CC(=O)O)c1C(C)C ?
### Response 7.80
